# Protocol Details: Plasma clearance in Beagle dog at 1 mg/kg, iv or 1 mg/kg, po
# Format: ADME, organism-based, Canis lupus familiaris
Assay Readout: clearance (mL/min/kg)

Smiles Representation | clearance [mL/min/kg]
CC(C)(O)c1ccn2c(-c3ccc(F)c(-c4cccnc4)c3)cnc2n1 | 8.1

I. CC(C)(O)c1cnn2c(-c3ccc(F)c(-c4ncc(F)cc4F)c3)cnc2n1
II. CC(C)(O)c1cnn2c(-c3ccc(F)c(-c4ncccc4C#N)c3)cnc2n1
Determine, for I and II , which has the greater value of clearance. Respond with the label that goes with your answer. II

----------
# Target Of Assay: GABA-A receptor; alpha-1/beta-3/gamma-2 (Homo sapiens, UniProt P14867+P18507+P28472)
# Sequence (P14867 whole entry): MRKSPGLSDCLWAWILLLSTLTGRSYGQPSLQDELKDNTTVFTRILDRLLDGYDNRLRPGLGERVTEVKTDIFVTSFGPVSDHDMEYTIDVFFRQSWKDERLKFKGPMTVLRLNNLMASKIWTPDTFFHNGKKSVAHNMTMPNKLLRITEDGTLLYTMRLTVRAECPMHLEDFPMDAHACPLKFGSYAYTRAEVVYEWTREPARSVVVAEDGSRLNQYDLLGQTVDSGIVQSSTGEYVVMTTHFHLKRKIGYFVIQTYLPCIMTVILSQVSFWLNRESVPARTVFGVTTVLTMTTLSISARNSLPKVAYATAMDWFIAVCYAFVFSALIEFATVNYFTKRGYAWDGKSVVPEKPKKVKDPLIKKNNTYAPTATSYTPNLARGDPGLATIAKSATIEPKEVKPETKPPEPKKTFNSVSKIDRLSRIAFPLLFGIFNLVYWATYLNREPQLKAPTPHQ
# Sequence (P18507 whole entry): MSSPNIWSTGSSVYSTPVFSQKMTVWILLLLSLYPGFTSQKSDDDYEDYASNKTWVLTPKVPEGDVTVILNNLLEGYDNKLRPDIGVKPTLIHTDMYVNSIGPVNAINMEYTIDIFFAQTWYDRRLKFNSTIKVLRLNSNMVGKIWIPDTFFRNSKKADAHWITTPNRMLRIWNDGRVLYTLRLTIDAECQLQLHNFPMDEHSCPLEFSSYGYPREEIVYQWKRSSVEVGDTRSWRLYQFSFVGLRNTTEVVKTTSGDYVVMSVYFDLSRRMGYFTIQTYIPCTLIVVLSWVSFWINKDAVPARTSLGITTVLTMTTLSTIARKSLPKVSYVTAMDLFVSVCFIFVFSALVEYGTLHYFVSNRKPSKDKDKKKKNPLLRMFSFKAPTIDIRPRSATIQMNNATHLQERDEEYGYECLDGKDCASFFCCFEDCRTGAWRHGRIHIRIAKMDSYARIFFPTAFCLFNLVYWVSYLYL
# Sequence (P28472 whole entry): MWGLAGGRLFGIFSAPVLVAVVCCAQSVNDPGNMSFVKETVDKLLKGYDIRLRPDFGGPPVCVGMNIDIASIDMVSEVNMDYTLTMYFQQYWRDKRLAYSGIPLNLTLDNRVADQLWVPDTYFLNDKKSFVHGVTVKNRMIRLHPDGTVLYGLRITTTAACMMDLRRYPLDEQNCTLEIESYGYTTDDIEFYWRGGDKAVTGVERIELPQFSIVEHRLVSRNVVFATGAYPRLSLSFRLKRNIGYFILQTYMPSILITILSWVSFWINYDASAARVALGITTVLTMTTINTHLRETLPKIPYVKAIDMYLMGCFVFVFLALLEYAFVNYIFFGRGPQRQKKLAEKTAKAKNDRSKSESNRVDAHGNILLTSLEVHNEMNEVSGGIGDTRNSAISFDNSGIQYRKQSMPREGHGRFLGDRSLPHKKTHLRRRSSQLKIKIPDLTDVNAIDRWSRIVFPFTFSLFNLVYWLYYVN
# Protocol Details: Displacement of [3H]Ro 15-1788 from recombinant human GABA-Aalpha1 receptor plus beta3gamma2 expressed in mouse L(tk-) cells
pKi: −log10 of the molar value.
Assay Readout: pKi

Smiles Representation | pKi
CC(C)(O)c1cnn2c(-c3ccc(F)c(-c4ncc(F)cc4F)c3)cnc2n1 | 9.17
CC(C)(O)c1ccn2c(-c3ccc(F)c(-c4ccncc4)c3)cnc2n1 | 9.17
CC(C)(O)c1cnn2c(-c3ccc(F)c(-c4ccncc4)c3)cnc2n1 | 9.26
CC(C)(O)c1cnn2c(-c3ccc(F)c(-c4ncccc4F)c3)cnc2n1 | 8.70
CC(C)(O)c1ccn2c(-c3ccc(F)c(-c4ncccc4F)c3)cnc2n1 | 9.10

I. CC(C)(O)c1ccn2c(-c3ccc(F)c(-c4ccncc4C#N)c3)cnc2n1
II. CC(C)(O)c1ccn2c(-c3ccc(F)c(-c4ncccc4C#N)c3)cnc2n1
Endpoint returns the identifier whose pKi is numerically larger, either I or II . Please reply using the label of the selected record. I

P. CC(C)(O)c1cnn2c(-c3ccc(F)c(-c4ccncc4C#N)c3)cnc2n1
Q. CC(C)(O)c1cnn2c(-c3ccc(F)c(-c4ncccc4C#N)c3)cnc2n1
P or Q : whose pKi is greater? Bench note: the answer is the label of the chosen record. P

A. CC(C)(O)c1cnn2c(-c3ccc(F)c(-c4cccnc4)c3)cnc2n1
B. CC(C)(O)c1ccn2c(-c3ccc(F)c(-c4ccc(F)cn4)c3)cnc2n1
Of the pair A and B , name the member with the lesser recorded pKi. Write the label of whichever entry you select. B

I. CC(C)(O)c1cnn2c(-c3ccc(F)c(-c4ccc(F)cn4)c3)cnc2n1
II. CC(C)(O)c1cnn2c(-c3ccc(F)c(-c4ncncc4C#N)c3)cnc2n1
Select the item whose pKi value is smaller, choosing between I and II . Record your answer as the label of the chosen record. I
(I: 8.84, II: 9.17)
